system: K-562 leukemia; test: NCI tumour cell line growth inhibition, 48 h
experimental-readout: TGI

In the examples that follow, each entry is paired with its recorded TGI.
molecule | experimental-readout | reported-result
O=C1OCc2cc3cc4c(cc3c(-c3ccc5c(c3)OCO5)c21)OCO4 (tested in a mixture with another compound) | TGI | > 100 µM
CC[C@@H]1C[C@H]2CC3c4[nH]c5ccc(O)cc5c4CCN(C2)C31 | TGI | > 100 µM
COC(=O)/C=C/c1cn(C(C)=O)c2ccc(Br)cc12 | TGI | > 23 µM
O=C1OC(c2ccccc2)(c2cc(Br)c(O)c(Br)c2)c2ccccc21 (stereo not given) | TGI | > 100 µM

Shifting focus to the molecule that follows.
## Input So what does the record say about TGI for Clc1cc2n[se]nc2cc1Cl ?
## Output > 100 µM

----------
tested on: A498 renal; experiment: NCI tumour cell line growth inhibition, 48 h
# TGI listing for each entry below

In the examples that follow, each entry is paired with its recorded TGI.
compound | subject-of-test | experimental-readout | reported-result
Br/C(=N\Nc1nn[nH]n1)c1ccncc1 | A498 renal | TGI | > 100 µM
CCCCCCc1nc2nc(Cl)c(Cl)nc2[nH]1 | A498 renal | TGI | > 100 µM
O=C(Oc1ccc(Cl)cc1[N+](=O)[O-])c1ccccc1 | A498 renal | TGI | > 100 µM
O=C1CCCC2C3CC(CN12)C1CCCCN1C3 (stereo unspecified) | A498 renal | TGI | > 100 µM

## Input So what does the record say about TGI for CCC[CH2][Sn]1([CH2]CCC)[O]C(=O)c2ccc(C)cc2[O]1 ?
## Output 1.06 µM

----------
tested on: SR leukemia; experiment: NCI tumour cell line growth inhibition, 48 h
experimental-readout: GI50

compound | subject-of-test | GI50
COC(=O)[C@H](Cc1ccc(O)cc1)NC(=O)[C@@H](OC)[C@@H]1Cc2cc3cc(OC4CC(OC5CC(O)C(O)C(C)O5)C(O)C(C)O4)c(C)c(O)c3c(O)c2C(=O)[C@H]1OC1CC(OC2CC(OC3CC(C)(O)C(O)C(C)O3)C(O)C(C)O2)C(O)C(C)O1 (some centres not stated) | SR leukemia | 0.0163 µM
O=c1c2c3c(sc2nc(N/N=C/c2ccc(Br)cc2)n1Cc1ccccc1)CCCC3 | SR leukemia | 4.98 µM
O=C(/C(=C/c1ccc([N+](=O)[O-])cc1)SCc1ccc(F)cc1)c1ccc(Cl)cc1 | SR leukemia | 2.63 µM
CC(=O)[C@@]1(O)[C@H](C)C[C@H]2[C@@H]3C=C(C)C4=Cc5c(cnn5-c5ccccc5)C[C@]4(C)[C@H]3[C@@H](O)C[C@@]21C | SR leukemia | 1.77 µM
NC1=NCCN1CC(=O)O | SR leukemia | > 10000 µM
Cc1cc(O)cc(C)c1/C=C/c1cncc(-c2nn[nH]n2)c1 | SR leukemia | > 25 µM

Shifting focus to the compound that follows.
## Input Notebook: pull reported GI50 for SR leukemia, entry CCCCCCCCCCCCOC1C(C(CC(=O)N2CCN(c3cccc(C(F)(F)F)c3)CC2)NS(=O)(=O)c2cc(Cl)cc(Cl)c2)OC2OC(C)(C)OC21 (configuration not stated)
## Output > 100 µM

----------
test system: A549 NSCLC; assay: NCI tumour cell line growth inhibition, 48 h; in the data active = GI50 below about 0.43 µM; inactive = the rest
Pick one: 1.0 for active, 0.0 for inactive

Solved entries:
molecule | label-value
CC[C@@]1(O)C(=O)OCc2c1cc1n(c2=O)Cc2c-1nc1cc3c(cc1c2C)OCO3 | 1.0
c1ccc(CN=C(NCc2ccccc2)NCc2ccccc2)cc1 | 0.0
C=C1C(=O)O[C@@H]2C1C[C@@H](O)C(=C)CC/C=C(\C)CCC[C@H](C)[C@H]2OC(C)=O (stereo not given in full) | 0.0
COC(=O)/C=C/c1cn(C(C)=O)c2ccc(Br)cc12 | 0.0

Please find the next molecule below.
## Input Could you kindly confirm the outcome this assay logged for CNC(=O)Oc1cc(C)c(/C=C/c2cncc(C(=O)NC)c2)c(C)c1 ?
## Output 0.0

----------
test system: HT29 colon; assay: NCI tumour cell line growth inhibition, 48 h; in the data active means GI50 below about 0.43 µM; inactive means the rest
Pick one: Y = active, N = inactive

Solved entries:
compound | label-value
CC/C(=C(/c1ccc(O)cc1)c1ccc(OCCN2CCCCC2)cc1)c1ccc(OC)cc1 | N
Cc1cc(Oc2ccc3nc(COc4ccc(CC5SC(=O)NC5=O)cc4)n(C)c3c2)cc(C)c1N (centres undefined) | N
O=C(NCc1ccncc1)C12CC3CC(C1)CC(c1ccc(Cl)cc1)(C3)C2 | N

## Input Could you kindly confirm the outcome this assay logged for Cc1cc(O)cc(C)c1/C=C/c1cncc(-c2nn[nH]n2)c1 ?
## Output N

## Input Could you kindly confirm the outcome this assay logged for Cc1cc2c(c3oc(C4(C)OC4C4OC4C)cc(=O)c13)C(=O)c1c(O)c(C3CC(C)(N(C)C)C(O)C(C)O3)cc(C3CC(N(C)C)C(O)C(C)O3)c1C2=O (centres undefined) ?
## Output Y

## Input Could you kindly confirm the outcome this assay logged for O=C(Nc1nc2ccc(F)cc2s1)c1cccnc1Nc1ccc(Cl)cc1 ?
## Output N

## Input Could you kindly confirm the outcome this assay logged for CCCCCCCCCCCCOC1C(C(CC(=O)N2CCN(c3cccc(C(F)(F)F)c3)CC2)NS(=O)(=O)c2cc(Cl)cc(Cl)c2)OC2OC(C)(C)OC21 (centres undefined) ?
## Output N

## Input Could you kindly confirm the outcome this assay logged for CCCCN(CCCC)CCCn1c(=O)c2c3ccccc3n(C)c2n2nnc(-c3ccccc3)c12 ?
## Output N

## Input Could you kindly confirm the outcome this assay logged for C/C(=C\COc1c2c(cc3c1CCO3)OC1(C=C2)OC(CC/C(C)=C/COc2c3ccoc3cc3oc(=O)ccc23)C(C)(C)O1)CCC(O)C(C)(C)O (centres undefined) ?
## Output N

## Input Could you kindly confirm the outcome this assay logged for CCc1ccc2c(c1)N(CCO)C1=C(C(=O)OC1)C2c1cccc(Cl)c1 (centres undefined) ?
## Output Y

## Input Could you kindly confirm the outcome this assay logged for NC1=NCCN1CC(=O)O ?
## Output N

## Input Could you kindly confirm the outcome this assay logged for COc1cnc2c(c1)C(=O)c1c-2n(CCCNC(C)C)c(=O)c2cc(F)ccc12 ?
## Output Y

## Input Could you kindly confirm the outcome this assay logged for C=C(CN1CCN(c2cccc(C(F)(F)F)n2)CC1)c1ccc(C(=S)Nc2ccccc2N)cc1 ?
## Output N

## Input Could you kindly confirm the outcome this assay logged for O=c1c2c3c(sc2nc(N/N=C/c2ccc(Br)cc2)n1Cc1ccccc1)CCCC3 ?
## Output N

## Input Could you kindly confirm the outcome this assay logged for COc1cc(-c2nn(-c3cccc(NC(=O)c4ccc(N5CCOCC5)c(C(F)(F)F)c4)c3)cc2-c2ccncc2)ccc1Cl ?
## Output N

## Input Could you kindly confirm the outcome this assay logged for Nc1c(C(=O)c2ccc(CCCN3CCOCC3)cc2)cnn1-c1ccc(F)cc1 ?
## Output N

## Input Could you kindly confirm the outcome this assay logged for N#CS.N=C=S.N=C=S.[Cu+2].[NH2-].[NH2-].[NH2-].[NH2-].c1ccc2ncccc2c1 ?
## Output N

## Input Could you kindly confirm the outcome this assay logged for CC(=O)[C@@]1(O)[C@H](C)C[C@H]2[C@@H]3C=C(C)C4=Cc5c(cnn5-c5ccccc5)C[C@]4(C)[C@H]3[C@@H](O)C[C@@]21C ?
## Output N

## Input Could you kindly confirm the outcome this assay logged for O=C(CCC(C(=O)c1ccccc1)c1ccccc1)c1ccccc1 (centres undefined) ?
## Output N

----------
test system: UACC-257 melanoma; assay: NCI tumour cell line growth inhibition, 48 h
# GI50 listing for each entry below

In the examples that follow, each entry is paired with its recorded GI50.
compound | GI50
C[C@H](CCCNCCCNCCCN)[C@H]1CC[C@H]2[C@@H]3[C@H](OCCCN)C[C@H]4C[C@H](OCCCN)CC[C@]4(C)[C@H]3C[C@H](OCCCN)[C@]12C | 9.63 µM
O=C(NCc1ccco1)c1ccc(NC2=C(Cl)C(=O)N(Cc3ccccc3)C2=O)cc1 | 28.9 µM
CN(C)CCOC(c1ccccc1)c1ccccc1 | 14.2 µM
Cc1ncsc1-c1ccc(CNC(=O)[C@@H]2C[C@@H](O)CN2C(=O)[C@@H](NC(=O)C2(C#N)CC2)C(C)(C)C)cc1 | > 100 µM
COc1ccc(-c2nc(N3CCN(C(=O)C4CCCCC4)CC3)c3c4c(sc3n2)CCCC4)cc1 | > 100 µM

## Input So what does the record say about GI50 for O=C(NCc1ccncc1)C12CC3CC(C1)CC(c1ccc(Cl)cc1)(C3)C2 ?
## Output 12.4 µM

## Input So what does the record say about GI50 for COc1ccc(-c2cc(-c3ccc(O)cc3)nc3n[nH]c(N)c23)cc1 ?
## Output 21.8 µM

## Input So what does the record say about GI50 for C=CN(C)S(C)(=O)=O ?
## Output > 100 µM

## Input So what does the record say about GI50 for COC(=O)[C@H](Cc1ccc(O)cc1)NC(=O)[C@@H](OC)[C@@H]1Cc2cc3cc(OC4CC(OC5CC(O)C(O)C(C)O5)C(O)C(C)O4)c(C)c(O)c3c(O)c2C(=O)[C@H]1OC1CC(OC2CC(OC3CC(C)(O)C(O)C(C)O3)C(O)C(C)O2)C(O)C(C)O1 (stereo not given in full) ?
## Output 0.124 µM

## Input So what does the record say about GI50 for CCCCCCc1nc2nc(Cl)c(Cl)nc2[nH]1 ?
## Output 3.02 µM
